read-out: Interleukin-8 (IL8), CXCL8 (gene 3576); assay: BSK_3C_IL8: BioMAP Diversity Plus: 3C Assay for Interleukin-8 (IL8) Biomarker Activity (AID 2283020); conditions: primary human endothelial cells (HUVEC); actives raise or lower the signal
Activity calls are given as the source filed them. The calls were made as follows: active = hit-call score of the fitted dose curve at least 0.9, where 1 is the maximum; inactive = score below 0.9.
Possible outcomes: YES (active), NO (inactive)

compound	class
NC(=O)C(F)(F)C(F)(F)C(F)(F)F	NO
CC1=CC2C3C=CC(C3)C2C1C (configuration not stated)	NO
Cc1ccc(O)c(-n2nc3ccccc3n2)c1	NO
Nc1cc([N+](=O)[O-])cc(Cl)c1O	NO
CCOC(C=C(C)CCC=C(C)C)OCC	YES
Cc1cc(C)c(O)c(C(C)(C)C)c1	YES
O=C(F)C1(F)C(F)(F)C(F)(F)C(F)(F)C(F)(F)C1(F)F	NO
O=S(=O)(O)CCC(F)(F)C(F)(F)C(F)(F)C(F)(F)C(F)(F)C(F)(F)C(F)(F)C(F)(F)F	NO
Brc1nc2ccccc2s1	NO
O=C(O)C(F)(F)C(F)(F)C(F)(F)OC(F)(C(F)(F)F)C(F)(F)F	NO
O=C1c2c(O)ccc(Nc3ccc(CCO)cc3)c2C(=O)c2c([N+](=O)[O-])ccc(O)c21	NO
OCCCCC(F)(F)C(F)(F)C(F)(F)C(F)(F)F	NO
